target.desc: 5-hydroxytryptamine receptor 5A (Homo sapiens) (UniProt P47898)
Sequence (P47898 whole entry): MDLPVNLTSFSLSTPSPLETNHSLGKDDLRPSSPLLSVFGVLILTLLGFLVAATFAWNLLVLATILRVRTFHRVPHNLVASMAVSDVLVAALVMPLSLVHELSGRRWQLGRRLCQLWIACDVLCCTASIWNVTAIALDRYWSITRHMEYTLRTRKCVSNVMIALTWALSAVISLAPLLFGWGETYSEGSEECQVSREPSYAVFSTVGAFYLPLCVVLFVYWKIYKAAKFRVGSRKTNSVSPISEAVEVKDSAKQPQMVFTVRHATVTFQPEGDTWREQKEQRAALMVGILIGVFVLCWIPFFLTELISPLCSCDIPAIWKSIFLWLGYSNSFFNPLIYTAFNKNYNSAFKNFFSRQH
settings: Compound concentration 10 µM; call rule not given here
Could you please pick one outcome from this set? active, inactive

Answered examples (6):
smiles.string: FC(F)(F)c1cccc(-c2noc(-c3cc(-c4ccccc4)c(C(F)(F)F)s3)n2)c1
assigned.class: inactive
//
smiles.string: O=c1ccc2ccc(OCCCCN3CCN(c4cccc5sccc45)CC3)cc2[nH]1
assigned.class: active
//
smiles.string: CCCCN1CCC(COC(=O)c2cc(Cl)c(N)c3c2OCCO3)CC1
assigned.class: inactive
//
smiles.string: CN[C@@H]1CCc2[nH]c3ccc(C(N)=O)cc3c2C1
assigned.class: inactive
//
smiles.string: N#Cc1c(N)nc(SCC(N)=O)c(C#N)c1-c1ccc(OCC2CC2)cc1
assigned.class: inactive
//
smiles.string: NCCc1cn(S(=O)(=O)c2c(Cl)nc3sccn23)c2ccccc12
assigned.class: inactive

Hi, sorry to bother you, what did the test record for `COc1ccc(OC(F)(F)F)cc1CN[C@H]1CCCN[C@H]1c1ccccc1` ?
inactive

Can you check `NCCc1c[nH]c2ccc(C(N)=O)cc12` next?
active

Please answer likewise for `CCCCC#Cc1nc(NC)c2ncn([C@@H]3O[C@H](CO)[C@@H](O)[C@H]3O)c2n1`
inactive

Next: `Cc1nc2sccn2c(=O)c1CCN1CCC(=C(c2ccc(F)cc2)c2ccc(F)cc2)CC1`
active
